Organism: Rattus norvegicus
Experiment: DrugMatrix - Regimen: Daily Repeat
Type: toxicity, organism-based, Sprague-Dawley
Design: regimen Daily Repeat, gender Male, age 6-8 weeks
Settings: in vivo, po, 0 mg/kg, 72 h, tissue Blood, route oral GAVAGE, dose level Control, time 3 day, vehicle 100 % WATER
property: PLATELET COUNT (x10E3/uL)
Give bare numbers, in x10E3/uL.

Example compounds with recorded PLATELET COUNT:
[[record]]
compound = "C[C@H]1c2cccc(O)c2C(=O)C2=C(O)[C@]3(O)C(=O)C(C(N)=O)=C(O)[C@@H](N(C)C)[C@@H]3[C@@H](O)[C@@H]21.O [DOXYCYCLINE]"
experimental_value = 1181.33

[[record]]
compound = "C=CCC1(C(C)CCC)C(=O)NC(=O)NC1=O (centres undefined) [SECOBARBITAL]"
experimental_value = 858

[[record]]
compound = "CC(O)CO (centres undefined) [PROPYLENE GLYCOL]"
experimental_value = 1225.5

[[record]]
compound = "Clc1cccc(Cl)c1N=C1NCCN1 [CLONIDINE]"
experimental_value = 1189.83

[[record]]
compound = "c1ccc([C@H]2CN3CCSC3=N2)cc1 [LEVAMISOLE]"
experimental_value = 1193.5


For each of the compounds below, note its PLATELET COUNT.
1. Cc1onc(-c2ccccc2Cl)c1C(=O)N[C@@H]1C(=O)N2[C@@H]1SC(C)(C)[C@@H]2C(=O)O [CLOXACILLIN]
2. Cn1cc[nH]c1=S [METHIMAZOLE]

1: 1225.5; 2: 1022.83

For each of the compounds below, note its PLATELET COUNT.
1. C[C@H](CS)C(=O)N1CCC[C@H]1C(=O)O [CAPTOPRIL]
2. COc1cc2nc(N3CCN(C(=O)C4COc5ccccc5O4)CC3)nc(N)c2cc1OC (centres undefined) [DOXAZOSIN]

1. 1016.67
2. 1181.33

====

Species on record: Rattus norvegicus
Test: DrugMatrix - Regimen: Daily Repeat
Assay type: toxicity, organism-based, Sprague-Dawley
Parameters: regimen Daily Repeat, gender Male, age 6-8 weeks
Conditions: in vivo, po, 0 mg/kg, 120 h, tissue Plasma, route oral GAVAGE, dose level Control, time 5 day, vehicle .5 % CMC
property: LACTATE DEHYDROGENASE (u/L)
One number for each entry, in u/L.

Example compounds with recorded LACTATE DEHYDROGENASE:
[[record]]
compound = "CN1CCN(CCCN2c3ccccc3Sc3ccc(Cl)cc32)CC1 [PROCHLORPERAZINE]"
property = "LACTATE DEHYDROGENASE"
experimental_value = 90.5

[[record]]
compound = "COc1nc(C)nc(Cl)c1N=C1NCCN1 [MOXONIDINE]"
property = "LACTATE DEHYDROGENASE"
experimental_value = 322

[[record]]
compound = "ClC(Cl)Br [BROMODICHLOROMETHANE]"
property = "LACTATE DEHYDROGENASE"
experimental_value = 241.5

[[record]]
compound = "CCCN1C[C@H](CSC)C[C@@H]2c3cccc4[nH]cc(c34)C[C@H]21 [PERGOLIDE]"
property = "LACTATE DEHYDROGENASE"
experimental_value = 259.67

[[record]]
compound = "ClC(Br)Br [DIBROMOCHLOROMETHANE]"
property = "LACTATE DEHYDROGENASE"
experimental_value = 241.5

[[record]]
compound = "CCn1cc(C(=O)O)c(=O)c2cc(F)c(N3CCNCC3)cc21 [NORFLOXACIN]"
property = "LACTATE DEHYDROGENASE"
experimental_value = 153.67

[[record]]
compound = "CC(C)(C)NC(=O)[C@@H]1C[C@@H]2CCCC[C@@H]2CN1C[C@@H](O)[C@H](Cc1ccccc1)NC(=O)[C@H](CC(N)=O)NC(=O)c1ccc2ccccc2n1"
property = "LACTATE DEHYDROGENASE"
experimental_value = 174

[[record]]
compound = "Nc1ccn([C@H]2CC[C@@H](CO)O2)c(=O)n1 [ZALCITABINE]"
property = "LACTATE DEHYDROGENASE"
experimental_value = 289.83

[[record]]
compound = "CCOP(=S)(OCC)Oc1nc(Cl)c(Cl)cc1Cl [CHLORPYRIFOS]"
property = "LACTATE DEHYDROGENASE"
experimental_value = 133.83

[[record]]
compound = "Cc1ccc(/N=C/N(C)/C=N/c2ccc(C)cc2C)c(C)c1 [AMITRAZ]"
property = "LACTATE DEHYDROGENASE"
experimental_value = 153.67


# context switch: different compound, same LACTATE DEHYDROGENASE
Could you tell me which LACTATE DEHYDROGENASE is on file for Cc1ccc2cc3c(ccc4ccccc43)c3c2c1CC3 [3-METHYLCHOLANTHRENE] ?
89.4

====

Species: Rattus norvegicus
Test: DrugMatrix - Regimen: Daily Repeat
Type: toxicity, organism-based, Sprague-Dawley
Parameters: regimen Daily Repeat, gender Male, age 6-8 weeks
Details: in vivo, po, 0 mg/kg, 72 h, tissue Plasma, route oral GAVAGE, dose level Control, time 3 day, vehicle .5 % CMC
property: LIPASE (u/L)
One number for each entry, in u/L.

[[record]]
smiles_input = "CC(C)(C)NC(=O)[C@@H]1C[C@@H]2CCCC[C@@H]2CN1C[C@@H](O)[C@H](Cc1ccccc1)NC(=O)[C@H](CC(N)=O)NC(=O)c1ccc2ccccc2n1"
experimental_value = 9.5

[[record]]
smiles_input = "CCOP(=S)(OCC)Oc1nc(Cl)c(Cl)cc1Cl"
experimental_value = 11.83

[[record]]
smiles_input = "CCn1cc(C(=O)O)c(=O)c2cc(F)c(N3CCNCC3)cc21"
experimental_value = 9

[[record]]
smiles_input = "Cc1ccc(/N=C/N(C)/C=N/c2ccc(C)cc2C)c(C)c1"
experimental_value = 9


# context switch: different compound, same LIPASE
Could you tell me which LIPASE is on file for ClC(Br)Br ?
10

====

Assign LIPASE to each entry below.
Species on record: Rattus norvegicus
Assay: DrugMatrix - Regimen: Daily Repeat
Type: toxicity, organism-based, Sprague-Dawley
Design: regimen Daily Repeat, gender Male, age 6-8 weeks
Details: in vivo, po, 0 mg/kg, 120 h, tissue Plasma, route oral GAVAGE, dose level Control, time 5 day, vehicle .5 % CMC

[[record]]
smiles_input = "CN1CCN(CCCN2c3ccccc3Sc3ccc(Cl)cc32)CC1"
experimental_value = "8.83 u/L"

[[record]]
smiles_input = "CCOP(=S)(OCC)Oc1nc(Cl)c(Cl)cc1Cl"
experimental_value = "11.17 u/L"

[[record]]
smiles_input = "CC(C)(C)NC(=O)[C@@H]1C[C@@H]2CCCC[C@@H]2CN1C[C@@H](O)[C@H](Cc1ccccc1)NC(=O)[C@H](CC(N)=O)NC(=O)c1ccc2ccccc2n1"
experimental_value = "8.67 u/L"

[[record]]
smiles_input = "ClC(Cl)Br"
experimental_value = "9.5 u/L"


# context switch: different molecule, same LIPASE
Could you tell me which LIPASE is on file for Cc1ccc2cc3c(ccc4ccccc43)c3c2c1CC3 ?
17.2 u/L

====

Assign TOTAL BILIRUBIN to each entry below.
Organism: Rattus norvegicus
Assay: DrugMatrix - Regimen: Daily Repeat
Type: toxicity, organism-based, Sprague-Dawley
Set-up: regimen Daily Repeat, gender Male, age 6-8 weeks
Settings: in vivo, po, 0 mg/kg, 120 h, tissue Plasma, route oral GAVAGE, dose level Control, time 5 day, vehicle .5 % CMC
Give bare numbers, in mg/dL.

Example compounds with recorded TOTAL BILIRUBIN:
[[record]]
compound = "Cc1ccc(/N=C/N(C)/C=N/c2ccc(C)cc2C)c(C)c1"
experimental_value = 0.18

[[record]]
compound = "Nc1ccn([C@H]2CC[C@@H](CO)O2)c(=O)n1"
experimental_value = 0.0833

[[record]]
compound = "CCCCc1oc2ccccc2c1C(=O)c1cc(I)c(OCCN(CC)CC)c(I)c1"
experimental_value = 0.68

[[record]]
compound = "CC1CC(OC(=O)C(O)c2ccccc2)CC(C)(C)C1 (stereo not drawn) [CYCLANDELATE]"
experimental_value = 0.55

[[record]]
compound = "COc1nc(C)nc(Cl)c1N=C1NCCN1"
experimental_value = 0.17

[[record]]
compound = "OCCN(CCO)c1nc(N2CCCCC2)c2nc(N(CCO)CCO)nc(N3CCCCC3)c2n1"
experimental_value = 0.55


For each of the compounds below, note its TOTAL BILIRUBIN.
1. ClC(Br)Br
2. CCOP(=S)(OCC)Oc1nc(Cl)c(Cl)cc1Cl

[0.22, 0.28]

====

Assign NUCLEATED RED BLOOD CELLS to each entry below.
Organism: Rattus norvegicus
Test: DrugMatrix - Regimen: Daily Repeat
Type: toxicity, organism-based, Sprague-Dawley
Design: regimen Daily Repeat, gender Male, age 6-8 weeks
Settings: in vivo, po, 0 mg/kg, 72 h, tissue Blood, route oral GAVAGE, dose level Control, time 3 day, vehicle .5 % CMC

[[record]]
compound = "CN1CCN(CCCN2c3ccccc3Sc3ccc(Cl)cc32)CC1"
experimental_value = "0 /100WBC"

[[record]]
compound = "COc1nc(C)nc(Cl)c1N=C1NCCN1"
experimental_value = "0 /100WBC"

[[record]]
compound = "CCn1cc(C(=O)O)c(=O)c2cc(F)c(N3CCNCC3)cc21"
experimental_value = "0.33 /100WBC"

[[record]]
compound = "Cc1ccc(/N=C/N(C)/C=N/c2ccc(C)cc2C)c(C)c1"
experimental_value = "0.33 /100WBC"

[[record]]
compound = "ClC(Br)Br"
experimental_value = "0 /100WBC"

[[record]]
compound = "ClC(Cl)Br"
experimental_value = "0 /100WBC"


For each of the compounds below, note its NUCLEATED RED BLOOD CELLS.
1. CC(C)(C)NC(=O)[C@@H]1C[C@@H]2CCCC[C@@H]2CN1C[C@@H](O)[C@H](Cc1ccccc1)NC(=O)[C@H](CC(N)=O)NC(=O)c1ccc2ccccc2n1
2. CCCN1C[C@H](CSC)C[C@@H]2c3cccc4[nH]cc(c34)C[C@H]21 [PERGOLIDE]

0 /100WBC
0 /100WBC
